target: human recombinant COX-2 (Homo sapiens, UniProt P35354); construct: expressed in transfected cells; host or cells: Cos-A2 cells, stably transfected; assay: COX-2 inhibition, COS cell assay; format: cell-based; conditions: COS, read-out: Inhibition of COX Enzymes in COS Cell Assays, COX-2 % inhibition; 10 μM
Value kind: inhibition at 10 µM (%)
Report the figure in % without appending any unit label.

> print(dat)
                                   molecule           value.kind  units.symbol  measurement
1  O=C1c2ccccc2C(S(=O)(=O)c2cccs2)C(=O)N1Cc1ccccc1 (centres unmarked)  inhibition at 10 µM             %           89
2  CC(C)S(=O)(=O)C1C(=O)N(Cc2ccccc2)C(=O)c2ccccc21 (centres unmarked)  inhibition at 10 µM             %           51
3  CC(C)S(=O)(=O)C1C(=O)N(Cc2ccccc2F)C(=O)c2ccccc21 (centres unmarked)  inhibition at 10 µM             %           46
4  O=C1c2ccccc2C(S(=O)(=O)CC(F)(F)F)C(=O)N1Cc1ccccc1 (centres unmarked)  inhibition at 10 µM             %           30

Consider the additional molecule presented here.
Query: Given CC(C)S(=O)(=O)C1C(=O)N(Cc2ccc(Cl)cc2)C(=O)c2ccccc21 (centres unmarked) , state its recorded inhibition at 10 µM.
Reply: 74

----------
target: human recombinant COX-1 (Homo sapiens); construct: expressed in transfected cells; host or cells: Cos-A2 cells, stably transfected; test: COX-1 inhibition, COS cell assay; format: cell-based; conditions: COS, read-out: Inhibition of COX Enzymes in COS Cell Assays, COX-1 % inhibition; 10 μM
Sequence (P23219 24-599): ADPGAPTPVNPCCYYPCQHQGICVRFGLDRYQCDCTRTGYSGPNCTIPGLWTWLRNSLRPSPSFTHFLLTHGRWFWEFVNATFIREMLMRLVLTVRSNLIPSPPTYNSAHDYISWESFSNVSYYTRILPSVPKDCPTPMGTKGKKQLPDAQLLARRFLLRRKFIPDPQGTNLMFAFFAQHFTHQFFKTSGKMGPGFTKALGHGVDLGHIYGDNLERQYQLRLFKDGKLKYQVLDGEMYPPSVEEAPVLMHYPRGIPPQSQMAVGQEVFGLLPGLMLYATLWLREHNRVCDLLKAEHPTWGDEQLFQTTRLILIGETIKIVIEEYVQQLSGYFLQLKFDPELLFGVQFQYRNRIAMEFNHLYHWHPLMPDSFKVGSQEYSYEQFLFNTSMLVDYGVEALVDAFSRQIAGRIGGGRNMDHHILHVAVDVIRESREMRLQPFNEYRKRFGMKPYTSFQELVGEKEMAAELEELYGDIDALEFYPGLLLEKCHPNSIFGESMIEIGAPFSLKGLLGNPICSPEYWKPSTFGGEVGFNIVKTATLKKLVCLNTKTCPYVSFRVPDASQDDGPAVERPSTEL
The following compounds are listed with their measured inhibition at 10 µM values.
Report the figure in % without appending any unit label.

# annotated cases, reported inhibition at 10 µM shown
> print(dat)
                                   compound                             system.name  measurement
1  O=C1c2ccccc2C(S(=O)(=O)c2ccccc2)C(=O)N1Cc1ccccc1 (centres unmarked)  human recombinant COX-1 (Homo sapiens)           85
2  CC(C)S(=O)(=O)C1C(=O)N(Cc2ccccc2F)C(=O)c2ccccc21 (centres unmarked)  human recombinant COX-1 (Homo sapiens)           39
3  O=C1c2ccccc2C(S(=O)(=O)c2cccs2)C(=O)N1Cc1ccccc1 (centres unmarked)  human recombinant COX-1 (Homo sapiens)           94
4  O=C1c2ccccc2C(S(=O)(=O)CC(F)(F)F)C(=O)N1Cc1ccccc1 (centres unmarked)  human recombinant COX-1 (Homo sapiens)           64

Consider the additional compound presented here.
Query: Given CC(C)S(=O)(=O)C1C(=O)N(Cc2ccc(Cl)cc2)C(=O)c2ccccc21 (centres unmarked) , state its recorded inhibition at 10 µM.
Reply: 72

----------
biological target: Human cyclooxygenase 1 (COX-1) (Homo sapiens, UniProt P23219); experiment: COX-1 inhibition, microsomal assay; details: 20 min, read-out: % Inhibition of COX Enzymes in Microsomal Assays, COX-1
Returns one of YES or NO; YES when inhibition at 10 µg/mL is >= 70%.

For orientation, consider the following solved cases.
> print(dat)
                                    compound  assigned.category
 1  O=C1c2ccccc2C(S(=O)(=O)c2ccc(Cl)cc2)C(=O)N1Cc1ccccc1 (centres unmarked)                YES
 2  O=C1c2ccccc2C(S(=O)(=O)c2ccc([N+](=O)[O-])cc2)C(=O)N1Cc1ccccc1 (centres unmarked)                 NO
 3  CC(C)S(=O)(=O)C1C(=O)N(Cc2ccc(F)c(F)c2)C(=O)c2ccc(Cl)cc21 (centres unmarked)                YES
 4  CC(C)S(=O)(=O)C1C(=O)N(Cc2ccc(F)c(F)c2)C(=O)c2ccccc21 (centres unmarked)                 NO
 5  O=C1c2ccccc2C(S(=O)(=O)c2ccccc2)C(=O)N1Cc1ccccc1 (centres unmarked)                YES
 6  CC(C)S(=O)(=O)C1C(=O)N(Cc2ccccc2)C(=O)c2ccccc21 (centres unmarked)                 NO
 7  CCCS(=O)(=O)C1C(=O)N(Cc2ccccc2)C(=O)c2ccccc21 (centres unmarked)                 NO
 8  CC(C)S(=O)(=O)C1C(=O)N(Cc2ccccc2F)C(=O)c2ccccc21 (centres unmarked)                 NO
 9  COc1ccc(S(=O)(=O)C2C(=O)N(Cc3ccccc3)C(=O)c3ccccc32)cc1 (centres unmarked)                YES
10  CC(C)S(=O)(=O)C1C(=O)N(Cc2ccccc2)C(=O)c2ccc(Cl)cc21 (centres unmarked)                 NO

Query: Determine whether measured inhibition at 10 µg/mL meets or exceeds 70% for O=C1c2ccccc2C(S(=O)(=O)CC(F)(F)F)C(=O)N1Cc1ccccc1 (centres unmarked)
Reply: NO

Query: Determine whether measured inhibition at 10 µg/mL meets or exceeds 70% for O=C1c2ccccc2C(S(=O)(=O)c2ccc(F)cc2)C(=O)N1Cc1ccccc1 (centres unmarked)
Reply: YES

Query: Determine whether measured inhibition at 10 µg/mL meets or exceeds 70% for O=C1c2ccccc2C(S(=O)(=O)c2cccs2)C(=O)N1Cc1ccccc1 (centres unmarked)
Reply: NO

Query: Determine whether measured inhibition at 10 µg/mL meets or exceeds 70% for Cc1ccc(S(=O)(=O)C2C(=O)N(Cc3ccccc3)C(=O)c3ccccc32)cc1 (centres unmarked)
Reply: YES

Query: Determine whether measured inhibition at 10 µg/mL meets or exceeds 70% for O=C1c2ccccc2C(S(=O)(=O)c2ccc3ccccc3c2)C(=O)N1Cc1ccccc1 (centres unmarked)
Reply: NO

Query: Determine whether measured inhibition at 10 µg/mL meets or exceeds 70% for CC(C)S(=O)(=O)C1C(=O)N(Cc2cccc(Cl)c2)C(=O)c2ccccc21 (centres unmarked)
Reply: NO

Query: Determine whether measured inhibition at 10 µg/mL meets or exceeds 70% for CC(C)S(=O)(=O)C1C(=O)N(Cc2ccc(Cl)cc2)C(=O)c2ccccc21 (centres unmarked)
Reply: NO

Query: Determine whether measured inhibition at 10 µg/mL meets or exceeds 70% for O=C1c2ccccc2C(S(=O)(=O)c2ccc(Br)cc2)C(=O)N1Cc1ccccc1 (centres unmarked)
Reply: YES

Query: Determine whether measured inhibition at 10 µg/mL meets or exceeds 70% for CCCCS(=O)(=O)C1C(=O)N(Cc2ccccc2)C(=O)c2ccccc21 (centres unmarked)
Reply: NO

Query: Determine whether measured inhibition at 10 µg/mL meets or exceeds 70% for CC(C)(C)c1ccc(S(=O)(=O)C2C(=O)N(Cc3ccccc3)C(=O)c3ccccc32)cc1 (centres unmarked)
Reply: NO

----------
biological target: Human cyclooxygenase 2 (COX-2) (Homo sapiens); experiment: COX-2 inhibition, microsomal assay; conditions: 20 min, read-out: % Inhibition of COX Enzymes in Microsomal Assays, COX-2
Sequence (P35354 18-604): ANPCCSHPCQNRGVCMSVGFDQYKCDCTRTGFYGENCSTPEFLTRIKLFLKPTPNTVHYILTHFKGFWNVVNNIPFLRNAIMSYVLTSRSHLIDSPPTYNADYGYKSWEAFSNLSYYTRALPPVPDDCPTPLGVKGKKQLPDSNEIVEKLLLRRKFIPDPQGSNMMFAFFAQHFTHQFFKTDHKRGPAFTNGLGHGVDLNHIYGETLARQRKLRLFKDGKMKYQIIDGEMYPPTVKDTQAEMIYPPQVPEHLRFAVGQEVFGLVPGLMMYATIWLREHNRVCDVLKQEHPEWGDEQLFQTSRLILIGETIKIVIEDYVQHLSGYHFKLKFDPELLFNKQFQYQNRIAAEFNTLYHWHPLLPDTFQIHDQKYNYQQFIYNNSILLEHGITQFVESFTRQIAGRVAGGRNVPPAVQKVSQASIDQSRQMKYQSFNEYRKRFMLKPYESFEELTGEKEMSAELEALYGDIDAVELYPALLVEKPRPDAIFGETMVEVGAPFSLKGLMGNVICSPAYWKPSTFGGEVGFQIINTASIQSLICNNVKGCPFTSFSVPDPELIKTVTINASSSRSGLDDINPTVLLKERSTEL
Returns one of class 1 or class 0; class 1 when inhibition at 10 µg/mL is >= 70%.

For orientation, consider the following solved cases.
> print(dat)
                                   compound  assigned.category
1  O=C1c2ccccc2C(S(=O)(=O)c2ccc([N+](=O)[O-])cc2)C(=O)N1Cc1ccccc1 (stereo not shown)            class 0
2  CCCCS(=O)(=O)C1C(=O)N(Cc2ccccc2)C(=O)c2ccccc21 (stereo not shown)            class 0
3  CC(C)(C)c1ccc(S(=O)(=O)C2C(=O)N(Cc3ccccc3)C(=O)c3ccccc32)cc1 (stereo not shown)            class 0
4  CC(C)S(=O)(=O)C1C(=O)N(Cc2ccc(F)cc2)C(=O)c2ccccc21 (stereo not shown)            class 1

Query: Determine whether measured inhibition at 10 µg/mL meets or exceeds 70% for CC(C)S(=O)(=O)C1C(=O)N(Cc2cccc(Cl)c2)C(=O)c2ccccc21 (stereo not shown)
Reply: class 0

Query: Determine whether measured inhibition at 10 µg/mL meets or exceeds 70% for CCCS(=O)(=O)C1C(=O)N(Cc2ccccc2)C(=O)c2ccccc21 (stereo not shown)
Reply: class 0

Query: Determine whether measured inhibition at 10 µg/mL meets or exceeds 70% for CC(C)S(=O)(=O)C1C(=O)N(Cc2ccccc2F)C(=O)c2ccccc21 (stereo not shown)
Reply: class 0

Query: Determine whether measured inhibition at 10 µg/mL meets or exceeds 70% for O=C1c2ccccc2C(S(=O)(=O)c2ccc(F)cc2)C(=O)N1Cc1ccccc1 (stereo not shown)
Reply: class 1

Query: Determine whether measured inhibition at 10 µg/mL meets or exceeds 70% for O=C1c2ccccc2C(S(=O)(=O)CC(F)(F)F)C(=O)N1Cc1ccccc1 (stereo not shown)
Reply: class 0

Query: Determine whether measured inhibition at 10 µg/mL meets or exceeds 70% for CC(C)S(=O)(=O)C1C(=O)N(Cc2ccc(F)c(F)c2)C(=O)c2ccccc21 (stereo not shown)
Reply: class 1
